# system-under-test: PI3K p110 beta/p85 alpha (Homo sapiens, UniProt P42338)
# Sequence (P27986 whole entry): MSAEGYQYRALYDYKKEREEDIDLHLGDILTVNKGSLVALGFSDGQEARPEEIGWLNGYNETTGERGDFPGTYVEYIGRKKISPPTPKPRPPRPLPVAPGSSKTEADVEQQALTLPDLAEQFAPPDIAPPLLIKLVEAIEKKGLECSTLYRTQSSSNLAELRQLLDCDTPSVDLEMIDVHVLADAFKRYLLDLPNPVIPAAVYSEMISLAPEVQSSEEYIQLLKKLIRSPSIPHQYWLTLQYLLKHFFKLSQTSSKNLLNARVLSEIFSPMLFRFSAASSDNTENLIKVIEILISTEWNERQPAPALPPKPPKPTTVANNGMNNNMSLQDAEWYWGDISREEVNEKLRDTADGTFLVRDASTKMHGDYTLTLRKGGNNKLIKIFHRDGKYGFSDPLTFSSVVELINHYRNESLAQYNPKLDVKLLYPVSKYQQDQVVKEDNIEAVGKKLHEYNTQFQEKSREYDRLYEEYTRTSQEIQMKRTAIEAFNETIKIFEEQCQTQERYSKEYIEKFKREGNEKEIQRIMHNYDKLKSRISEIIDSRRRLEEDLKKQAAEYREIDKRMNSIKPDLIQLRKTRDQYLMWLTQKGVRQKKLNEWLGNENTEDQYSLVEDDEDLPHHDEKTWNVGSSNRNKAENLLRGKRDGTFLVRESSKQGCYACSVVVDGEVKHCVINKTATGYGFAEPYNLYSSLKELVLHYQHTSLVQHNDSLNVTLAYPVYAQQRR
# Sequence (P42338 whole entry): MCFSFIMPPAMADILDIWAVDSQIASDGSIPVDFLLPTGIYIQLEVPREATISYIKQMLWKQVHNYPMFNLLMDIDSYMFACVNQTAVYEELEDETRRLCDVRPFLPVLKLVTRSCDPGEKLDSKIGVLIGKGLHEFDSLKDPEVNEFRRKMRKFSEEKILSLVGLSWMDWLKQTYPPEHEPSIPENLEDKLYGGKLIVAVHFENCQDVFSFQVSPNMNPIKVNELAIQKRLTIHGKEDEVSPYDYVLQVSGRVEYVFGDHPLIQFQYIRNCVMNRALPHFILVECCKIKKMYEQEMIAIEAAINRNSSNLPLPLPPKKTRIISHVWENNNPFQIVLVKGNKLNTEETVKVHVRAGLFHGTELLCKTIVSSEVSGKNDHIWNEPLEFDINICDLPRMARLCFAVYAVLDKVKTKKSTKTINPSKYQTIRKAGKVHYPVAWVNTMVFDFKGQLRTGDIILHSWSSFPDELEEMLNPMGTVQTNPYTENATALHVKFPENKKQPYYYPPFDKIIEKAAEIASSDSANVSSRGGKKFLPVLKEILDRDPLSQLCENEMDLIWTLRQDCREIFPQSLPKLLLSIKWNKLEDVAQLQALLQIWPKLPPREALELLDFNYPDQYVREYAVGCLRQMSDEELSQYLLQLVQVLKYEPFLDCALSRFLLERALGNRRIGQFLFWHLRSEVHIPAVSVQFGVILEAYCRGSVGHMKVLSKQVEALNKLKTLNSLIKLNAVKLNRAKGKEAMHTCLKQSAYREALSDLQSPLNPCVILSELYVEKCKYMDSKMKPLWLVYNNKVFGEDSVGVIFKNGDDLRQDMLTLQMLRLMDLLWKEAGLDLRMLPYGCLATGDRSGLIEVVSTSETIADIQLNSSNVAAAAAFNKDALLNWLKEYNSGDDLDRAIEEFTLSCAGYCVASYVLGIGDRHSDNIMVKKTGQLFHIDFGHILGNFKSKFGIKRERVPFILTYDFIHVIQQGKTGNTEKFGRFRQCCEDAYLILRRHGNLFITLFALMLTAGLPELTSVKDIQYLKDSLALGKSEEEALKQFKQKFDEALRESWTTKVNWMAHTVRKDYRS
# experimental-protocol: Inhibition of N-terminal His6-tagged recombinant full-length human p110beta/untagged recombinant full length p85alpha expressed in baculovirus infected Sf21 cells using phosphatidylinositol as substrate in presence of gamma-32P-ATP after 5 mins by thin layer chromatographic method
pIC50: −log10 of the molar value.
Catalogue of pIC50 values

Worked cases, answers included:
molecule	experimental-result
Cc1cccc2cc(Cn3nc(-c4cn[nH]c4)c4c(N)ncnc43)n(-c3ccccc3F)c(=O)c12	> 5.00
Cc1ccccc1-n1c(Cn2nc(C#C[C@H](C)O)c3c(N)ncnc32)cc2cccc(C)c2c1=O	> 5.00
Cc1cccc2cc(Cn3nc(I)c4c(N)ncnc43)n(C3CCCCC3)c(=O)c12	< 5.00
Cc1cccc2cc([C@H](C)Nc3ncnc4[nH]nc(C(N)=O)c34)n(-c3ccccc3)c(=O)c12	> 7.00
Cc1ccccc1-n1c(C(C)Nc2ncnc3[nH]cnc23)cc2cccc(C)c2c1=O (stereo not drawn)	> 5.00

The value of pIC50 recorded for "Cc1ccccc1-n1c(CN(C)c2ncnc3[nH]cnc23)cc2cccc(C)c2c1=O" when tested on PI3K p110 beta/p85 alpha (Homo sapiens, UniProt P42338) reads < 5.00

Reported pIC50 (PI3K p110 beta/p85 alpha (Homo sapiens, UniProt P42338)) for entry "Cc1ccccc1-n1c(Cn2nc(-c3cc(O)cc(F)c3)c3c(N)nccc32)cc2cccc(C)c2c1=O" is > 5.00

PI3K p110 beta/p85 alpha (Homo sapiens, UniProt P42338) pIC50 of "Cc1ccccc1-n1c(Cn2nc(-c3ccc4nc(N)sc4c3)c3c(N)ncnc32)cc2cccc(C)c2c1=O" is > 5.00

Value sought: pIC50, system PI3K p110 beta/p85 alpha (Homo sapiens, UniProt P42338), item "Nc1ncnc2c1c(-c1cn[nH]c1)nn2Cc1cc2cccc(F)c2c(=O)n1-c1ccccc1F" . Result: < 5.00

====

# system-under-test: PI3K p110 beta/p85 alpha (Homo sapiens)
# experimental-protocol: Inhibition of N-terminal His6-tagged recombinant full-length human p110beta/untagged recombinant full length p85alpha expressed in baculovirus infected Sf21 cells using phosphatidylinositol as substrate in presence of gamma-32P-ATP after 5 mins by thin layer chromatographic method
measured-property: IC50

The examples below pair each entry with its known result.
smiles-record	system-under-test	IC50
Cc1cccc2cc([C@H](C)Nc3ncnc4[nH]cc(C#N)c34)n(-c3ccccc3)c(=O)c12	PI3K p110 beta/p85 alpha (Homo sapiens)	< 0.1 µM
Cc1cccc2cc([C@H](C)Nc3ncnc4[nH]ccc34)n(C3CC3)c(=O)c12	PI3K p110 beta/p85 alpha (Homo sapiens)	< 0.1 µM
Cc1cccc2cc([C@H](C)Nc3ncnc4[nH]nc(C#N)c34)n(-c3ccccc3)c(=O)c12	PI3K p110 beta/p85 alpha (Homo sapiens)	< 0.1 µM

Record for "Cc1cccc2cc(Cn3nc(C#C[C@@H](C)O)c4c(N)ncnc43)n(C3CC3)c(=O)c12" under target or system PI3K p110 beta/p85 alpha (Homo sapiens): IC50 reported as < 1 µM

Let me check: "Cc1ccccc1-n1c(Cn2nc(C#CCO)c3c(N)ncnc32)cc2cccc(C)c2c1=O" , system PI3K p110 beta/p85 alpha (Homo sapiens), measured IC50 is > 10 µM

The reported numbers originate from ChEMBL document CHEMBL3879901.
